tested target: ZFP SBS#1250 (synthetic)
Sequence (chain, as listed by the source): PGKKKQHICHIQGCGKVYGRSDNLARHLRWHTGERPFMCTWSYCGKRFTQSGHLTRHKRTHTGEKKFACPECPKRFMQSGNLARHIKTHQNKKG
assay text: EMSA
condition parameters: tags: MBP fusion
readout label: Kd

Documented Kd of GAAGGAGAG (dsDNA) DNA 1: GAAGGAGAG DNA 2: CTCTCCTTC : 0.31 nM
